# Tested on: RS4;11 cells
# MEASUREMENT_PROTOCOL: RS4;11 cell viability, CCK-8 assay
# Type: cell-based
# EXPERIMENTAL_CONTEXT: Homo sapiens, RS4-11, 96 h, CCK-8, 4 days, read-out: RS4, 11 IC50 (Bcl-2 dependent)
pIC50: −log10 of the molar value.
Measured pIC50 accompanies every entry in the list below.

COMPOUND	TARGET_OR_TEST_SYSTEM	pIC50
CC(C)c1nc2cc(S(=O)(=O)NC(=O)c3ccc(N4CCN(CC5=C(c6ccc(Cl)cc6)CC6(CCC6)CC5)CC4)cc3Oc3cnc4[nH]ccc4c3)cc([N+](=O)[O-])c2[nH]1 [compound 58]	RS4;11 cells	7.46
COCCOCCNc1ccc(S(=O)(=O)NC(=O)c2ncc(N3CCN(CC4=C(c5ccc(Cl)cc5)CC5(CCC5)CC4)CC3)cc2Oc2cnc3[nH]ccc3c2)cc1[N+](=O)[O-] [compound 31]	RS4;11 cells	7.47
O=C(NS(=O)(=O)c1ccc(NCC2CCOCC2)c([N+](=O)[O-])c1)c1c(F)cc(N2CCN(CC3=C(c4ccc(Cl)cc4)CC4(CCC4)CC3)CC2)cc1Oc1cnc2[nH]ccc2c1 [compound 41]	RS4;11 cells	7.28
O=C(NS(=O)(=O)c1cc([N+](=O)[O-])c2nn(CC3CCOCC3)cc2c1)c1ccc(N2CCN(CC3=C(c4ccc(Cl)cc4)CC4(CCC4)CC3)CC2)cc1Oc1cnc2[nH]ccc2c1 [compound 61]	RS4;11 cells	7.37
O=C(NS(=O)(=O)C1=CC2C(=O)N(CC3CCOCC3)CC2C([N+](=O)[O-])=C1)c1ccc(N2CCN(CC3=C(c4ccc(Cl)cc4)CC4(CCC4)CC3)CC2)cc1Oc1cnc2[nH]ccc2c1 (centres unmarked) [compound 38]	RS4;11 cells	7.18

---

# Tested on: MV4;11 cell line
# MEASUREMENT_PROTOCOL: MV4;11 inhibition
# Type: cell-based
# EXPERIMENTAL_CONTEXT: Homo sapiens, MV4-11
pIC50: −log10 of the molar value.
Catalogue of compounds with associated pIC50

COMPOUND	TARGET_OR_TEST_SYSTEM	QUALIFIER_SYMBOL	pIC50
O=C(NS(=O)(=O)C1=CC2C(=O)N(CC3CCOCC3)CC2C([N+](=O)[O-])=C1)c1ccc(N2CCN(CC3=C(c4ccc(Cl)cc4)CC4(CCC4)CC3)CC2)cc1Oc1cnc2[nH]ccc2c1 (stereo not shown)	MV4;11 cell line	=	6.99
COCCOCCNc1ccc(S(=O)(=O)NC(=O)c2ccc(N3CCN(CC4=C(c5ccc(Cl)cc5)CC5(CCC5)CC4)CC3)c(F)c2Oc2cnc3[nH]ccc3c2)cc1[N+](=O)[O-]	MV4;11 cell line	=	6.90
O=C(NS(=O)(=O)c1ccc(NCC2CCOCC2)c([N+](=O)[O-])c1)c1c(F)cc(N2CCN(CC3=C(c4ccc(Cl)cc4)CC4(CCC4)CC3)CC2)cc1Oc1cnc2[nH]ccc2c1	MV4;11 cell line	=	7.74
O=C(NS(=O)(=O)c1cc([N+](=O)[O-])n(CC2CCOCC2)c1)c1ccc(N2CCN(CC3=C(c4ccc(Cl)cc4)CC4(CCC4)CC3)CC2)cc1Oc1cnc2[nH]ccc2c1	MV4;11 cell line	=	5.29
O=C(NS(=O)(=O)c1ccc(NCC2CCOCC2)c([N+](=O)[O-])c1)c1ccc(N2CCN(CC3=C(c4ccc(Cl)cc4)CC4(CCC4)CC3)CC2)c(F)c1Oc1cnc2[nH]ccc2c1	MV4;11 cell line	=	7.06
O=C(NS(=O)(=O)c1cc([N+](=O)[O-])c2[nH]c(-c3ccncc3)nc2c1)c1ccc(N2CCN(CC3=C(c4ccc(Cl)cc4)CC4(CCC4)CC3)CC2)cc1Oc1cnc2[nH]ccc2c1	MV4;11 cell line	<	3.00
O=C(NS(=O)(=O)c1ccc(NC[C@H]2COCCO2)c([N+](=O)[O-])c1)c1ccc(N2CCN(CC3=C(c4ccc(Cl)cc4)CC4(CCC4)CC3)CC2)nc1Oc1cnc2[nH]ccc2c1	MV4;11 cell line	=	5.89
O=C(NS(=O)(=O)c1cc(F)c(NCC2CCOCC2)c([N+](=O)[O-])c1)c1ccc(N2CCN(CC3=C(c4ccc(Cl)cc4)CC4(CCC4)CC3)CC2)cc1Oc1cnc2[nH]ccc2c1	MV4;11 cell line	=	7.32
COCCOCCn1nc2cc(S(=O)(=O)NC(=O)c3ccc(N4CCN(CC5=C(c6ccc(Cl)cc6)CC6(CCC6)CC5)CC4)cc3Oc3cnc4[nH]ccc4c3)cc([N+](=O)[O-])c2c1F	MV4;11 cell line	=	7.23
O=C(NS(=O)(=O)c1ccc(NCC2CCOCC2)c([N+](=O)[O-])c1)c1ncc(N2CCN(CC3=C(c4ccc(Cl)cc4)CC4(CCC4)CC3)CC2)cc1Oc1cnc2[nH]ccc2c1	MV4;11 cell line	=	7.65

---

As an illustration, consider measured IC50 for compounds on UniProt P10415.
Sequence (P10415 whole entry): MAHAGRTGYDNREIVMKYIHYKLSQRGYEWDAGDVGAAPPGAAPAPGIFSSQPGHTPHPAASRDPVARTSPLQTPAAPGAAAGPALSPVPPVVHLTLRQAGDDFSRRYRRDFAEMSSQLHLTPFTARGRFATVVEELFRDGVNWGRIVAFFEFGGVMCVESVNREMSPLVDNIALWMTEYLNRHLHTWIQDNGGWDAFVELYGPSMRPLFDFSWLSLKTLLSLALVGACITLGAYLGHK

MOL_SMILES	IC50 (nM)
O=C(NS(=O)(=O)c1ccc(NCC2CCOCC2)c([N+](=O)[O-])c1)c1ccc(N2CCN(CC3=C(c4ccc(Cl)cc4)CC4(CCC4)CC3)CC2)cc1Oc1cnc2[nH]ccc2c1	1.2
CNc1ccc(S(=O)(=O)NC(=O)c2ccc(N3CCN(CC4=C(c5ccc(Cl)cc5)CC5(CCC5)CC4)CC3)cc2Oc2cnc3[nH]ccc3c2)cc1[N+](=O)[O-]	3.3
O=C(NS(=O)(=O)c1ccc(NCC2CCOCC2)c([N+](=O)[O-])c1)c1ccc(C2CCN(CC3=C(c4ccc(Cl)cc4)CC4(CCC4)CC3)CC2)cc1Oc1cnc2[nH]ccc2c1	4.4
CC(C)c1nc2cc(S(=O)(=O)NC(=O)c3ccc(N4CCN(CC5=C(c6ccc(Cl)cc6)CC6(CCC6)CC5)CC4)cc3Oc3cnc4[nH]ccc4c3)cc([N+](=O)[O-])c2[nH]1	3.8
O=C(NS(=O)(=O)c1cc([N+](=O)[O-])c2cn(CC3CCOCC3)nc2c1)c1ccc(N2CCN(CC3=C(c4ccc(Cl)cc4)CC4(CCC4)CC3)CC2)cc1Oc1cnc2[nH]ccc2c1	1.3
O=C(NS(=O)(=O)c1cccc([N+](=O)[O-])c1)c1ccc(N2CCN(CC3=C(c4ccc(Cl)cc4)CC4(CCC4)CC3)CC2)cc1Oc1cnc2[nH]ccc2c1	3.1
O=C(NS(=O)(=O)c1cc([N+](=O)[O-])c2[nH]c(C3CC3)nc2c1)c1ccc(N2CCN(CC3=C(c4ccc(Cl)cc4)CC4(CCC4)CC3)CC2)cc1Oc1cnc2[nH]ccc2c1	5
O=C(NS(=O)(=O)c1cc([N+](=O)[O-])c2cn(C3CCOCC3)nc2c1)c1ccc(N2CCN(CC3=C(c4ccc(Cl)cc4)CC4(CCC4)CC3)CC2)cc1Oc1cnc2[nH]ccc2c1	1.4
O=C(NS(=O)(=O)c1ccc(NCC2CCOCC2)c([N+](=O)[O-])c1)c1ccc(N2CCN(CC3=C(c4ccc(Cl)cc4)CC4(CC3)COC4)CC2)cc1Oc1cnc2[nH]ccc2c1	0.76
CN(C)c1ccc(S(=O)(=O)NC(=O)c2ccc(N3CCN(CC4=C(c5ccc(Cl)cc5)CC5(CCC5)CC4)CC3)cc2Oc2cnc3[nH]ccc3c2)cc1[N+](=O)[O-]	11.9

---

# MEASUREMENT_PROTOCOL: Pharmacokinetics in rats
# Assay type: in vivo
# EXPERIMENTAL_CONTEXT: rat, in vivo, IV 2 mg/kg, read-out: t1/2 IV (converted)
# Protocol: The pharmacokinetics of ABT-199 and representative Compounds of the Disclosure were evaluated in rats at an IV dose of 2 mg/kg and an oral dose of 20 mg/kg.

COMPOUND	half-life
CC1(C)CCC(CN2CCN(c3ccc(C(=O)NS(=O)(=O)c4ccc(NCC5CCOCC5)c([N+](=O)[O-])c4)c(Oc4cnc5[nH]ccc5c4)c3)CC2)=C(c2ccc(Cl)cc2)C1 [ABT-199, Venetoclax, reference compound]	4.32 h
O=C(NS(=O)(=O)c1ccc(NC[C@H]2COCCO2)c([N+](=O)[O-])c1)c1ccc(N2CCN(CC3=C(c4ccc(Cl)cc4)CC4(CCC4)CC3)CC2)cc1Oc1cnc2[nH]ccc2c1	4.39 h
O=C(NS(=O)(=O)c1ccc(NCC2CCOCC2)c([N+](=O)[O-])c1)c1ccc(N2CCN(CC3=C(c4ccc(Cl)cc4)CC4(CCC4)CC3)CC2)cc1Oc1cnc2[nH]ccc2c1	4.94 h

---

# System: MV4;11 cell line
# MEASUREMENT_PROTOCOL: MV4;11 inhibition
# Assay type: cell-based
# EXPERIMENTAL_CONTEXT: Homo sapiens, MV4-11
pIC50: −log10 of the molar value.
Form field: pIC50 (one value per entry).

COMPOUND	TARGET_OR_TEST_SYSTEM	pIC50
COCCn1cc(S(=O)(=O)NC(=O)c2ccc(N3CCN(CC4=C(c5ccc(Cl)cc5)CC5(CCC5)CC4)CC3)cc2Oc2cnc3[nH]ccc3c2)cc1[N+](=O)[O-] [compound 35]	MV4;11 cell line	5.44
COCCOCCNc1ccc(S(=O)(=O)NC(=O)c2cc(F)c(N3CCN(CC4=C(c5ccc(Cl)cc5)CC5(CCC5)CC4)CC3)cc2Oc2cnc3[nH]ccc3c2)cc1[N+](=O)[O-] [compound 37]	MV4;11 cell line	6.81
O=C(NS(=O)(=O)c1ccc(NC[C@H]2COCCO2)c([N+](=O)[O-])c1)c1ncc(N2CCN(CC3=C(c4ccc(Cl)cc4)CC4(CCC4)CC3)CC2)cc1Oc1cnc2[nH]ccc2c1 [compound 27]	MV4;11 cell line	7.77
